Provide the reported Kd of each item.
Molecular target: T1, Lin28 (Lin28A) (Mus musculus (murine), UniProt Q8K3Y3 1-209)
T1 sequence: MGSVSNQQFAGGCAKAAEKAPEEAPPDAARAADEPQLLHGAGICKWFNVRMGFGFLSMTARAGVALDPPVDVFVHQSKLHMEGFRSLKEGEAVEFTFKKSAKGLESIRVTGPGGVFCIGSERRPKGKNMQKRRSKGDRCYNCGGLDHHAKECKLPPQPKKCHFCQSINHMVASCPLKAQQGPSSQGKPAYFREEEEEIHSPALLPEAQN
Test: EMSA; 1:1 complex; EMSA: 50 mM Tris pH 7.6, 50 mM NaCl, 10% glycerol, 0.05% NP-40 alternative, 2 mM DTT, 4°C; 2-AP: 50 mM Tris pH 7.6, 50 mM NaCl, 10% glycerol, 4°C; FRET: EMSA buffer, 30°C
Conditions: protein: recombinant; label: 5'-32P; hairpin
Numbers only, in nM.

binder="GCGACUGUUGAAUCUCAUGGCGCA (structured_RNA) [TL-miR-21a]" recorded_endpoint=Kd measured=13

Next binder, Kd to be filled in.
Incoming: Given the binder GCCGCGGGGCCUUCGCCGCACACGGCA (structured_RNA) [TL-miR-99b] , what is its reported Kd?
Outgoing: 15
